test system: RXF 393 renal; assay: NCI-60 one-dose screen, 48 h; conditions: 10 µM unless noted
The panel holds about 83,000 compounds, 20% with a hit somewhere; the sample as a whole holds those more often. Calls of active or inactive are those of the source. How the source made its calls: active means growth percent below 10; inactive means the rest.
Permitted responses: TRUE = active, FALSE = inactive

Query: Could you please tell me the result logged for CC(=O)c1cc2c(o1)C(=O)c1ccccc1C2=O in this assay?
Result: TRUE

Query: Please indicate how the test categorized COc1ccc2c(c1)/C(=C\c1sc(=S)[nH]c1O)C(C(=O)O)=N2 .
Result: FALSE

Query: What outcome does the record of this test show for CCOC(=O)N1CCc2c(sc3c2C(=O)N[C@H](c2ccc(OC)cc2)N3)C1 ?
Result: FALSE

Query: Which outcome was assigned to CC(C)n1nc(C#Cc2cccc(NC(=O)c3cccc(C(F)(F)F)c3)c2)c2c(N)ncnc21 in this test?
Result: TRUE

Query: Returns: the outcome recorded for CS(=O)(=O)c1ccc(-c2nc3cc(Cl)ccc3n2CC(=O)N/N=C/c2ccc(Cl)cc2)cc1 in this assay.
Result: TRUE

Query: Fill in: this test's call for C=C1C(=O)O[C@H]2[C@H]1CC/C(COC(=O)/C=C/C(=O)NCc1ccc(Cn3c(=O)sn(-c4ccccc4)c3=O)cc1)=C\CC[C@@]1(C)O[C@@H]21 is ___
Result: TRUE

Query: Name the outcome recorded for COc1ccc(C2CC(c3ccccc3)=NN2c2nc(C)c(C(C)=O)s2)cc1 (stereo unspecified) in the assay.
Result: FALSE

Query: Record request — test call for CCCN1CCN(c2ccc3nc(-c4ccc5nc(-c6ccc(OCC)c(OCC)c6)[nH]c5c4)[nH]c3c2)CC1
Result: TRUE

Query: Fill in: this test's call for Cn1ccc(Cc2cnc(N)s2)n1 is ___
Result: FALSE

Query: Look up the recorded call for O=C1c2ccccc2C2(c3ccc(O)cc3)c3ccccc3Oc3cccc1c32 (stereo unspecified) in this test.
Result: FALSE

Query: Outcome? CCN(CC)CCCNC(=O)c1ccc(N)cc1O
Result: FALSE

Query: Per the assay record, what outcome was assigned to C=C(C)[C@@H]1CC[C@]2(C(=O)NCC(=O)O)CC[C@]3(C)[C@H](CC[C@@H]4[C@@]5(C)Cc6c([nH]c7ccccc67)C(C)(C)[C@@H]5CC[C@]43C)[C@@H]12 ?
Result: FALSE

Query: Which result was noted for this compound in the test: C=CCOc1cccc(/C=C2\SC(=Nc3ccc(O)cc3)NC2=O)c1
Result: TRUE

Query: Recorded test outcome, item CCOC(=O)Cc1csc2nc(-c3ccccc3)nn12
Result: FALSE

Query: Which result was noted for this compound in the test: CN1C[C@@H](c2ccc(Cl)cc2)[C@]2(NC(=S)N(c3ccccc3)C2=O)[C@@]12C(=O)NC1C=CC(Br)=C[C@H]12 (stereo partly specified)
Result: FALSE

Query: Answer briefly: the call reported for CN1C[C@@H](c2ccc(Cl)cc2)[C@]2(NC(=S)N(c3ccc(F)c(Cl)c3)C2=O)[C@@]12C(=O)NC1C=CC(Cl)=C[C@H]12 (stereo partly specified) in this assay.
Result: FALSE

Query: What did the test return for COc1ccc(-c2nc3ncccn3c2/C=C/C(=O)c2cc(OC)c(OC)c(OC)c2)cc1 ?
Result: TRUE

Query: Entry CCn1c(Sc2nnc(NC(C)=O)s2)nc2c1c(=O)n(C)c(=O)n2C : call = ?
Result: FALSE

Query: Outcome logged for CCOC(=O)c1c2c(c(C)n1C)-c1nn(Cc3ccc(OC)cc3)cc1CC2 in this assay:
Result: FALSE

Query: Identify the outcome logged in this assay for the compound shown: NC(=O)CC1(O)C=C(Br)C(=O)C(Br)=C1
Result: TRUE

Query: Which outcome was assigned to O=C1CSC(c2ccccc2)N1c1ccccc1 (stereo unspecified) in this test?
Result: FALSE

Query: How did this test come out for N=c1ccn2c(n1)OC1C(O)C(CO)OC12 (stereo unspecified) ?
Result: FALSE

Query: Identify the outcome logged in this assay for the compound shown: COc1ccc(Oc2nc(Nc3ccc(N4CCOCC4)nc3)ncc2NC(=O)c2cc(OC)cc(OC)c2)cc1
Result: FALSE

Query: Identify the outcome logged in this assay for the compound shown: O=C1NC(=S)S/C1=C\N1N=C(c2ccc(Cl)cc2)CC1c1ccc(F)cc1 (stereo unspecified)
Result: FALSE

Query: I would be grateful if you could indicate the recorded call for c1ccc(-c2oc3ccccc3c2-c2ccccc2)cc1 .
Result: FALSE

Query: Just curious, what result did CCNCCNc1cc(C2CCCC2)c(C#N)c2nc3ccccc3n12 get here?
Result: TRUE

Query: recorded result category for Cc1ccc(/C(=N\N=C(N)N)c2ccccc2)cc1 in this test
Result: FALSE

Query: How was CCNCCNc1cc(-c2ccc(C(F)(F)F)cc2)c(C#N)c2nc3cc(Cl)c(Cl)cc3n12 classified in this test?
Result: TRUE

Query: How did this test come out for Cc1[nH]c(-c2nc3ccccc3[nH]2)c(C)c1C(=O)N1CCc2sccc2C1 ?
Result: FALSE

Query: What classification did CC(=O)c1ccc2c(c1)CCN2 end up with in this test?
Result: FALSE

Query: Assay result, entry O=C1NCC(=O)N(Cc2ccco2)[C@H]1Cc1ccccc1 — outcome?
Result: FALSE

Query: Could you please tell me the result logged for COc1ccccc1C(=O)NC(=S)Nc1ccc(-c2nc3ccccc3[nH]2)cc1 in this assay?
Result: FALSE

Query: Which outcome did this test record for the compound Cc1ccc(S(=O)(=O)Nc2sccc2-c2nc(-c3ccccc3)no2)cc1 ?
Result: FALSE

Query: What outcome does the record of this test show for CCCCOC(=O)c1ccc(NC(=O)C(C)N2CCOCC2)cc1 (stereo unspecified) ?
Result: FALSE

Query: For O=C1N(c2ccccc2)C(=S)N[C@]12[C@H](c1ccccc1)C1CCCN1[C@]21C(=O)NC2C=CC(Cl)=C[C@H]21 (stereo partly specified) , what call appears in the results of this test?
Result: FALSE

Query: For CCNCCNc1cc(-c2ccc(C(=O)OC)cc2)c(C#N)c2nc3ccccc3n12 , what call appears in the results of this test?
Result: FALSE

Query: Write down the call the test reported for this compound. Item: COc1ccc(-c2nc3ccccn3c2/C=C/C(=O)c2cc(OC)c(OC)c(OC)c2)cc1
Result: FALSE

Query: For CC(C)n1nc(C#Cc2cccc(O)c2)c2c(N)ncnc21 , which call appears in the assay record?
Result: TRUE

Query: Returns: the outcome recorded for CCN(CC)CCCNC(=O)c1ccc(N)cc1 in this assay.
Result: FALSE

Query: Kindly provide the recorded test outcome for the following compound: CCCCCCCC/C=C/CCCCCCCC1=NCC[N+]1(CCO)CCO
Result: FALSE

Query: Test call, this compound: CCOc1cccnc1/C=N/NC(N)=S
Result: FALSE
